Experiment: Example 1: pharmacokinetics of Compound I, single (SD) and multiple (MD, q8h 7 days) ascending doses, 3-hour IV infusion, healthy adult subjects
Assay type: in vivo, human
Details: human, plasma, intravenous, 1000 mg, 1000 mg single dose
Measurement name: Tmax (h)
# value in h; strip the unit string

Consider the compound O=C(O)C[C@@H]1CC[C@H](NC(=O)Cc2cccs2)B(O)O1 [Compound I] and give its recorded Tmax.
3.01

====

Experiment: clinical
Conditions: both, human, in vivo, AM concentration at time of bronchoscopy and BAL
Measurement name: concentration at 3.25 h
Please answer in the form of a number followed by its unit of measurement.

Consider the molecule "O=C(O)C[C@@H]1CC[C@H](NC(=O)Cc2cccs2)B(O)O1" and give its recorded concentration at 3.25 h.
8.79 µg/mL

====

Assay: Example 1: pharmacokinetics of Compound I, single (SD) and multiple (MD, q8h 7 days) ascending doses, 3-hour IV infusion, healthy adult subjects
Type: in vivo, human
Conditions: human, plasma, intravenous; 1000 mg single dose
Measurement name: AUC(0-inf)
Please answer in the form of a number followed by its unit of measurement.

Consider the compound "O=C(O)C[C@@H]1CC[C@H](NC(=O)Cc2cccs2)B(O)O1" and give its recorded AUC(0-inf).
79300 ng·h/mL

====

Assay: Example 1: pharmacokinetics of Compound I, single (SD) and multiple (MD, q8h 7 days) ascending doses, 3-hour IV infusion, healthy adult subjects
Format: in vivo, human
Settings: human, plasma, intravenous, 1000 mg, 1000 mg single dose
Measurement name: Cmax (ng/mL)
# value in ng/mL; strip the unit string

Consider the compound "O=C(O)C[C@@H]1CC[C@H](NC(=O)Cc2cccs2)B(O)O1" and give its recorded Cmax.
21800

====

Assay: Example 1: pharmacokinetics of Compound I, single (SD) and multiple (MD, q8h 7 days) ascending doses, 3-hour IV infusion, healthy adult subjects
Format: in vivo, human
Conditions: human, plasma, intravenous, 1250 mg, 1250 mg single dose
Measurement name: AUC(0-t) (ng·h/mL)
# value in ng·h/mL; strip the unit string

Consider the compound O=C(O)C[C@@H]1CC[C@H](NC(=O)Cc2cccs2)B(O)O1 [Compound I] and give its recorded AUC(0-t).
97200

====

Test: Example 1: pharmacokinetics of Compound I, single (SD) and multiple (MD, q8h 7 days) ascending doses, 3-hour IV infusion, healthy adult subjects
Format: in vivo, human
Settings: human, plasma and urine, intravenous, 2000 mg, 2000 mg single dose
Measurement name: CL renal

Consider the molecule "O=C(O)C[C@@H]1CC[C@H](NC(=O)Cc2cccs2)B(O)O1" and give its recorded CL renal.
252 mL/min

====

Assay: Example 1: pharmacokinetics of Compound I, single (SD) and multiple (MD, q8h 7 days) ascending doses, 3-hour IV infusion, healthy adult subjects
Format: in vivo, human
Conditions: human, urine, intravenous, 250 mg, 250 mg multiple dose; read-out: Urinary Recovery
Measurement name: dose excreted (%)
# value in %; strip the unit string

Consider the compound O=C(O)C[C@@H]1CC[C@H](NC(=O)Cc2cccs2)B(O)O1 [Compound I] and give its recorded dose excreted.
79.9

====

Experiment: Example 1: pharmacokinetics of Compound I, single (SD) and multiple (MD, q8h 7 days) ascending doses, 3-hour IV infusion, healthy adult subjects
Format: in vivo, human
Settings: human, urine, intravenous, 1000 mg, 1000 mg single dose; read-out: Urinary Recovery
Measurement name: dose excreted (%)
# value in %; strip the unit string

Consider the molecule "O=C(O)C[C@@H]1CC[C@H](NC(=O)Cc2cccs2)B(O)O1" and give its recorded dose excreted.
89.9

====

Assay: Example 1: pharmacokinetics of Compound I, single (SD) and multiple (MD, q8h 7 days) ascending doses, 3-hour IV infusion, healthy adult subjects
Format: in vivo, human
Settings: human, plasma, intravenous, 2000 mg, 2000 mg single dose
Measurement name: AUC(0-t) (µg·h/mL)
# value in µg·h/mL; strip the unit string

Consider the molecule O=C(O)C[C@@H]1CC[C@H](NC(=O)Cc2cccs2)B(O)O1 [Compound I] and give its recorded AUC(0-t).
140

====

Experiment: Example 6: noncompartmental plasma pharmacokinetics after third dose of the Combination (2 g meropenem/2 g Compound I q8h)
Conditions: both, human, plasma, intravenous, t1/2, meropenem 2 g q8h, 3.25-hour BAL Sampling Group
Measurement name: half-life (h)
# value in h; strip the unit string

Consider the molecule "C[C@@H](O)[C@H]1C(=O)N2C(C(=O)O)=C(S[C@@H]3CN[C@H](C(=O)N(C)C)C3)[C@H](C)[C@H]12" and give its recorded half-life.
1.04

====

Assay: Example 6: noncompartmental plasma pharmacokinetics after third dose of the Combination (2 g meropenem/2 g Compound I q8h)
Conditions: both, human, plasma, intravenous, t1/2, Compound I 2 g q8h, 1.5-hour BAL Sampling Group
Measurement name: half-life (h)
# value in h; strip the unit string

Consider the compound "O=C(O)C[C@@H]1CC[C@H](NC(=O)Cc2cccs2)B(O)O1" and give its recorded half-life.
1.18

====

Assay: Example 1: pharmacokinetics of Compound I, single (SD) and multiple (MD, q8h 7 days) ascending doses, 3-hour IV infusion, healthy adult subjects
Format: in vivo, human
Conditions: human, urine, intravenous, 250 mg, 250 mg single dose; read-out: Urinary Recovery
Measurement name: dose excreted (%)
# value in %; strip the unit string

Consider the compound "O=C(O)C[C@@H]1CC[C@H](NC(=O)Cc2cccs2)B(O)O1" and give its recorded dose excreted.
81.3

====

Assay: Example 1: pharmacokinetics of Compound I, single (SD) and multiple (MD, q8h 7 days) ascending doses, 3-hour IV infusion, healthy adult subjects
Assay type: in vivo, human
Conditions: human, plasma and urine, intravenous, 250 mg, 250 mg multiple dose
Measurement name: CL renal (mL/min)
# value in mL/min; strip the unit string

Consider the molecule O=C(O)C[C@@H]1CC[C@H](NC(=O)Cc2cccs2)B(O)O1 [Compound I] and give its recorded CL renal.
212

====

Experiment: clinical
Conditions: both, human, in vivo, AM concentration at time of bronchoscopy and BAL
Measurement name: concentration at 6 h (ng/mL)
# value in ng/mL; strip the unit string

Consider the compound "O=C(O)C[C@@H]1CC[C@H](NC(=O)Cc2cccs2)B(O)O1" and give its recorded concentration at 6 h.
27600

====

Test: clinical
Settings: both, human, in vivo, Ratio AM to Plasma (total plasma concentration)
Measurement name: Kp at 8 h
Lab note: record just the number, no unit beside it.

Consider the molecule O=C(O)C[C@@H]1CC[C@H](NC(=O)Cc2cccs2)B(O)O1 [Compound I] and give its recorded Kp at 8 h.
1.6

====

Assay: Example 1: pharmacokinetics of Compound I, single (SD) and multiple (MD, q8h 7 days) ascending doses, 3-hour IV infusion, healthy adult subjects
Format: in vivo, human
Settings: human, plasma, intravenous, 2000 mg, 2000 mg single dose; read-out: T1/2 (converted)
Measurement name: half-life
Please answer in the form of a number followed by its unit of measurement.

Consider the compound O=C(O)C[C@@H]1CC[C@H](NC(=O)Cc2cccs2)B(O)O1 [Compound I] and give its recorded half-life.
1.51 h

====

Assay: Example 6: noncompartmental plasma pharmacokinetics after third dose of the Combination (2 g meropenem/2 g Compound I q8h)
Conditions: both, human, plasma, intravenous, Cmax, Compound I 2 g q8h, All Subjects
Measurement name: Cmax (µg/mL)
# value in µg/mL; strip the unit string

Consider the compound "O=C(O)C[C@@H]1CC[C@H](NC(=O)Cc2cccs2)B(O)O1" and give its recorded Cmax.
59

====

Assay: clinical
Settings: both, human, in vivo, ratio of ELF to unbound plasma concentrations based on mean AUC0-8
Measured Kp of individual entries
Lab note: record just the number, no unit beside it.

C[C@@H](O)[C@H]1C(=O)N2C(C(=O)O)=C(S[C@@H]3CN[C@H](C(=O)N(C)C)C3)[C@H](C)[C@H]12 [meropenem, Meropenem]; 0.65

Let's switch to this compound now.
Consider the compound O=C(O)C[C@@H]1CC[C@H](NC(=O)Cc2cccs2)B(O)O1 [Compound I] and give its recorded Kp.
0.79

====

Test: Example 1: pharmacokinetics of Compound I, single (SD) and multiple (MD, q8h 7 days) ascending doses, 3-hour IV infusion, healthy adult subjects
Type: in vivo, human
Details: human, plasma, intravenous, 500 mg, 500 mg single dose
Measurement name: Tmax (h)
# value in h; strip the unit string

Consider the compound "O=C(O)C[C@@H]1CC[C@H](NC(=O)Cc2cccs2)B(O)O1" and give its recorded Tmax.
3

====

Experiment: clinical
Conditions: both, human, in vivo, Plasma concentration at time of bronchoscopy and BAL
Measurement name: concentration at 6 h (ng/mL)
# value in ng/mL; strip the unit string

Consider the molecule O=C(O)C[C@@H]1CC[C@H](NC(=O)Cc2cccs2)B(O)O1 [Compound I] and give its recorded concentration at 6 h.
10800

====

Assay: Example 1: pharmacokinetics of Compound I, single (SD) and multiple (MD, q8h 7 days) ascending doses, 3-hour IV infusion, healthy adult subjects
Assay type: in vivo, human
Settings: human, urine, intravenous, 1500 mg, 1500 mg multiple dose; read-out: Urinary Recovery
Measurement name: dose excreted (%)
# value in %; strip the unit string

Consider the compound "O=C(O)C[C@@H]1CC[C@H](NC(=O)Cc2cccs2)B(O)O1" and give its recorded dose excreted.
86.8
